Measured CC50 accompanies every entry in the list below.
- Test system: CAKI-1
- Method Description: SRB anti-cancer assay, Renal Cancer
- Format: cell-based, human
- Particulars: CAKI-1 (Renal Cancer), 48 h; read-out: LC50 (the source's name)
Recorded Metric: CC50

Molecule | Tgt | Recorded Metric | Result
N=c1nc(N)c2ncn([C@@H]3O[C@H](COC(=O)c4ccccc4)[C@@H](OC(=O)c4ccccc4)[C@H]3OC(=O)c3ccccc3)c2c(N)n1 | CAKI-1 | CC50 | 59.4 µM
N=c1nc(N)c2ncn([C@@H]3O[C@H](CO)[C@@H](O)[C@H]3O)c2c(N)n1 [Compound 14-2] | CAKI-1 | CC50 | > 100 µM
N=c1[nH]c(=O)c2ncn([C@@H]3O[C@H](CO)[C@@H](O)[C@H]3O)c2c(=O)[nH]1 [Compound 14-1] | CAKI-1 | CC50 | > 100 µM

----------
- System: NCI-H226
- Assay type: cell-based, human
- Particulars: NCI-H226 (Non-Small Cell Lung Cancer), 48 h; read-out: LC50 (the source's name)

Structure Notation | CC50
N=c1nc(N)c2ncn([C@@H]3O[C@H](CO)[C@@H](O)[C@H]3O)c2c(N)n1 | > 100 µM
N=c1[nH]c(=O)c2ncn([C@@H]3O[C@H](CO)[C@@H](O)[C@H]3O)c2c(=O)[nH]1 | > 100 µM
N=c1nc(N)c2ncn([C@@H]3O[C@H](COC(=O)c4ccccc4)[C@@H](OC(=O)c4ccccc4)[C@H]3OC(=O)c3ccccc3)c2c(N)n1 | 72.4 µM

----------
- Test system: UACC-257
- Method Description: SRB anti-cancer assay, Melanoma
- Type: cell-based, human
- Particulars: UACC-257 (Melanoma), 48 h; read-out: LC50 (the source's name)
Measured CC50 accompanies every entry in the list below.
Recorded Metric: CC50 (µM)

Molecule | Tgt | Units Symbol | Value Relation Sign | Quantitative Readout
N=c1nc(N)c2ncn([C@@H]3O[C@H](CO)[C@@H](O)[C@H]3O)c2c(N)n1 [Compound 14-2] | UACC-257 | µM | = | 52.3
N=c1[nH]c(=O)c2ncn([C@@H]3O[C@H](CO)[C@@H](O)[C@H]3O)c2c(=O)[nH]1 [Compound 14-1] | UACC-257 | µM | > | 100
N=c1nc(N)c2ncn([C@@H]3O[C@H](COC(=O)c4ccccc4)[C@@H](OC(=O)c4ccccc4)[C@H]3OC(=O)c3ccccc3)c2c(N)n1 | UACC-257 | µM | = | 73.5

----------
Measured CC50 accompanies every entry in the list below.
- Tested on: ACHN
- Method Description: SRB anti-cancer assay, Renal Cancer
- Format: cell-based, human
- Particulars: 48 h, read-out: LC50 (the source's name)
Recorded Metric: CC50

Structure Notation | Tgt | Result
N=c1nc(N)c2ncn([C@@H]3O[C@H](COC(=O)c4ccccc4)[C@@H](OC(=O)c4ccccc4)[C@H]3OC(=O)c3ccccc3)c2c(N)n1 | ACHN | 50.7 µM
N=c1nc(N)c2ncn([C@@H]3O[C@H](CO)[C@@H](O)[C@H]3O)c2c(N)n1 | ACHN | 59.9 µM
N=c1[nH]c(=O)c2ncn([C@@H]3O[C@H](CO)[C@@H](O)[C@H]3O)c2c(=O)[nH]1 | ACHN | > 100 µM
